target_desc: T1, LIN7B, Q9HAP6
T1 sequence (Q9HAP6 88-185, limits assumed, looked up): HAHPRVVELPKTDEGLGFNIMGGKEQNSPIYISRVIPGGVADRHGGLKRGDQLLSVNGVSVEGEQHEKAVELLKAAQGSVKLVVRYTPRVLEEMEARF
test_details: holdup assay
Set-up: key: below the threshold = too weak to quantify, mostly under pKd 3.1 to 4
stated_conditions: plain residues with an end cap or a label only (N-terminal biotin on a linker: ado-ado)
readout_name: pKd

                         binder  readout_name       value_observed
0   PAALPESTHM [SLC9A3, P48764]           pKd  below the threshold
1  PGKKPEDSRV [SLCO2B1, O94956]           pKd  below the threshold
2    PALKNGQYWV [CSPG4, Q6UVK1]           pKd  below the threshold
